System: Aspergillus niger
assay-procedure: Antifungal activity against Aspergillus niger MTCC 282 after overnight incubation by broth microdilution method
Assay type: functional
MIC99 values, listed per item
Provide the reading as a plain figure in µg/mL.

Some compounds with recorded MIC99:
Cc1ccc(O)c(C(=O)c2ccc(-c3cc4cc(Br)ccc4oc3=O)nc2)c1    500
COC1=CC(=O)C[C@@H](C)[C@]12Oc1c(Cl)c(OC)cc(OC)c1C2=O    100

# next compound below
*Q* Give recorded MIC99 with Aspergillus niger for the following compound: O=C(c1ccc(-c2cc3c(ccc4ccccc43)oc2=O)nc1)c1cc(Cl)ccc1O
*A* 100

###

Test system: Candida albicans
assay-procedure: Antifungal activity against Candida albicans MTCC 227 after overnight incubation by broth microdilution method
Format: functional
assay-endpoint: MIC99

Some molecules with recorded MIC99:
O=C(c1ccc(-c2cc3cc(Br)ccc3oc2=O)nc1)c1cc(Cl)ccc1O    100 µg/mL
COc1cccc2cc(-c3ccc(C(=O)c4ccccc4O)cn3)c(=O)oc12    1000 µg/mL
COc1cccc2cc(-c3ccc(C(=O)c4cc(Cl)ccc4O)cn3)c(=O)oc12    > 1000 µg/mL
Cc1ccc(O)c(C(=O)c2ccc(-c3cc4cc(Br)ccc4oc3=O)nc2)c1    500 µg/mL

# next molecule below
*Q* // returns reported MIC99 for input COc1cccc2cc(-c3ccc(C(=O)c4cc(C)ccc4O)cn3)c(=O)oc12
*A* 1000 µg/mL
